System: Drosophila melanogaster
Experiment: Phase-I lifespan of yellow-white Drosophila fed dietary supplements
Format: in vivo
Conditions: male yellow-white Drosophila, supplement at optimal RDA in diet, vs. control (36 days)
Procedure: For the phase-I of the study, approximately 1200 male yellow-white Drosophila were bred, isolated and monitored on a daily basis. About 100 fruit flies were tested for each supplement, divided into four vials containing 25 flies each. […]

# molecule, subject of test, increase in mean survival / longevity / %
records = [
    ("CC(=O)N[C@@H](CS)C(=O)O [NAC, N acetyl cysteine]", "Drosophila melanogaster", 28),
    ("COC1=C(OC)C(=O)C(C/C=C(\\C)CC/C=C(\\C)CC/C=C(\\C)CC/C=C(\\C)CC/C=C(\\C)CC/C=C(\\C)CC/C=C(\\C)CC/C=C(\\C)CC/C=C(\\C)CCC=C(C)C)=C(C)C1=O [Coenzyme Q10]", "Drosophila melanogaster", 11),
    ("N[C@@H](CCC(=O)N[C@@H](CS)C(=O)NCC(=O)O)C(=O)O [Glutathione]", "Drosophila melanogaster", 11),
    ("Oc1ccc(C=Cc2cc(O)cc(O)c2)cc1 [Resveratrol]", "Drosophila melanogaster", 39),
]

Taken from patent US20130263298A1.
